The measured values listed here are drawn from ChEMBL document CHEMBL1201862.

Recorded AC50 values (Cytochrome P450 2D6 (Homo sapiens, UniProt P10635)) are given below.

The cases that follow already have their AC50 on record.
Molecule | Reading
CC1=C(C(=O)OCc2ccccc2)C(c2ccccc2)NC(=O)N1CCCCCC(=O)O (stereo unspecified) | 39.8 µM (inconclusive)
COc1ccc(C(=O)N2CCC3(CC2)CCN(c2ncccn2)CC3)cc1 | 20 µM (inconclusive)
CSc1cccc(NC(=O)Nc2ccc(Cl)cc2)c1 | 3.55 µM (inconclusive)
CC(C)C(CCNC(=O)CC(Cc1ccccc1)c1ccco1)c1ccco1 (stereo unspecified) | 5.62 µM (inconclusive)
CNc1ncnc2ccc(-c3ccccc3OC)cc12 | 25.1 µM (inconclusive)
Cc1ccc(/C=N/NC(=O)c2cccs2)cc1[N+](=O)[O-] | 0.0251 µM (inconclusive)
CCCn1cnc2c(SCc3ccc(Cl)cc3)nc(N)nc21 | 3.16 µM (inconclusive)
O=C1c2ccccc2C(=O)N1CCCSc1ccccc1 | 3.16 µM (inconclusive)

Batch: AC50 for all items listed.
1. O=[N+]([O-])c1ccc(Cl)c(/C=N/N2CCN(Cc3ccccc3)CC2)c1
2. COC(=O)c1ccc(NC(=O)N2CCC(O)(c3cccnc3)CC2)cc1
3. CCCCCCCCCCCCCCCC(=O)NC[C@@H](COP(=O)([O-])OCC[N+](C)(C)C)OCC

11.2 µM (inconclusive)
15.8 µM (inconclusive)
31.6 µM (inconclusive)

----------
Target: Eukaryotic translation initiation factor 4H (Homo sapiens, UniProt Q15056)
Assay: eIF4H binding inhibition – biochemical, uHTS, fluorescence polarization, translation initiation inhibitor project, primary screen (AID 2012)
Calls of active or inactive are those of the source.
Please state which outcome applies, choosing from active, inactive

Completed entries (count: 3):
Compound | Classification
COc1ccc(/C=C2\C(=O)NCC(=O)N2C)cc1 | inactive
COc1ccccc1NC(=O)c1cc[n+](C)cc1 | active
COc1cc(/C=C/c2cccc[n+]2C)ccc1OCC(=O)Nc1ccccc1C | inactive

Attention now turns to another entry.
Give the logged outcome of this assay for the following compound: CC1=C(C(=O)OCc2ccccc2)C(c2ccccc2)NC(=O)N1CCCCCC(=O)O (centres undefined) active

----------
Molecular target: Leucine aminopeptidase (Plasmodium falciparum 3D7, UniProt Q8IL11)
Assay: P. falciparum M17LAP inhibitors, primary screen, biochemical, fluorogenic H-Leu-NHMec substrate, 1536-well (AID 1619)
Assay type: functional
Calls of active or inactive are those of the source.
Reported property: IC50

Consider the following illustrative entries.
Compound | IC50
Cc1ccc(Cn2ccc(NC(=O)C3C4CCC(C4)C3C(=O)O)n2)cc1 (configuration not stated) | 10.2 µM (active)
Cc1ccc(C(=O)Nc2nc(=O)n(C(=O)C3CC3)s2)cc1 | 19.3 µM (active)
O=C(O)CCCCCNC(=O)Nc1ccc2c(c1)OCCO2 | 5.51 µM (active)
Oc1cc(-c2cccc3ccccc23)[nH]n1 | 2.9 µM (active)
O=C(O)C1CC=CCC1C(=O)Nc1ccc(Oc2ccc(Cl)cc2)cc1 (configuration not stated) | 1.02 µM (active)
COC(=O)c1c(NC(=O)C2CCCCC2C(=O)O)sc2c1CCCCC2 (configuration not stated) | 1.49 µM (active)

Moving on to the next compound.
Retrieve IC50 on Leucine aminopeptidase (Plasmodium falciparum 3D7, UniProt Q8IL11); query CCOC(=O)CCP(=O)(O)C(O)c1ccc(OC)cc1 (configuration not stated) 8.59 µM (active)

----------
Tested on: Streptococcus
Assay: GAS UMAA2166 growth inhibition – luminescence, BacTiterGlo, counter-screen for streptokinase expression inhibitor project, dose response (AID 1915);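 further: potency for reduction of bacterial viability or growth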
Format: functional, organism-based
Calls of active or inactive are those of the source.
Reported property: EC50

# batch size: 4; output EC50 per entry
1. O=C(Nc1nc(N2C(=O)c3ccccc3C2=O)n(-c2ccccc2)n1)c1ccc(Cl)cc1
2. CCC(CC)c1nnc(NC(=O)c2ccc3ccccc3n2)s1
3. Cc1nn2c(O)cc(C(C)(C)C)nc2c1-c1ccccc1
4. CCCN(CC(=O)Nc1cc(Cl)cc(Cl)c1)CC(=O)Nc1ccc(F)c(F)c1F

["22.9 µM (active)", "12.5 µM (active)", "6.75 µM (active)", "10.4 µM (active)"]

----------
Molecular target: Low molecular weight phosphotyrosine protein phosphatase (Homo sapiens);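 further: Dose-response confirmation assay measuring inhibition of LMPTP enzyme activity by fluorescence intensity read-out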
Type: functional
Details: read-out: IC50_Mean
Calls of active or inactive are those of the source.
Return exactly one item of active, inactive

The examples below pair each entry with its known result.
Smiles entry | Tested system | Classification
Cc1cc(N2CCN(C(=O)Oc3ccc([N+](=O)[O-])cc3)CC2)c2ccccc2n1 | Low molecular weight phosphotyrosine protein phosphatase (Homo sapiens) | inactive
O=C(O)c1ccc(/C=N/NC(=O)c2cc3c(ccc4ccccc43)o2)cc1 | Low molecular weight phosphotyrosine protein phosphatase (Homo sapiens) | active
Cc1cc2oc(=O)cc(-c3cc4ccccc4o3)c2cc1O | Low molecular weight phosphotyrosine protein phosphatase (Homo sapiens) | inactive
COc1ccc(Nc2nc(-c3ccc4c(c3)NC(=O)CO4)cs2)cc1 | Low molecular weight phosphotyrosine protein phosphatase (Homo sapiens) | inactive

Then this compound:
Which outcome was assigned to Cc1nccc(O)c1Cc1c(Cl)cccc1Cl in this test? active

----------
Target: Fatty acid synthase (Homo sapiens)
Test: inhibition of human FAS-TE enzyme activity – biochemical, kinetic fluorescence intensity, dose response (AID 624326);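 further: rate of fluorescence rise from hydrolysis of a fluorogenic O-methyl fluorescein ester substrate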
Format: functional
Calls of active or inactive are those of the source.
Bench note: report the call from active, inactive

Reference set (5 entries):
Smiles entry | Classification
CC(C)c1ccccc1NC(=O)COC(=O)c1cc([N+](=O)[O-])ccc1N1CCOCC1 | active
COc1ccc([N+](=O)[O-])cc1NC(=O)CC(c1ccccc1)c1ccccc1 | inactive
C/C(=N\NC(=O)c1nnn(-c2nonc2N)c1-c1ccc(Cl)c(Cl)c1)c1ccncc1 | inactive
CCCCCCCCNC(=O)/C(C#N)=C/c1ccccc1[N+](=O)[O-] | active
O=S(=O)(c1ccc(-c2csc(Nc3ccc(F)cc3)n2)cc1)N1CCCC1 | active

In this assay, the call recorded for COc1ccc(C(=O)COC(=O)c2cc([N+](=O)[O-])ccc2N2CCOCC2)c(OC)c1 was what? active

// param item: Cc1cc(-c2ccc(/C=N/n3cnnc3)o2)c(C)c([N+](=O)[O-])c1 ; yields the recorded call active

----------
Biological target: Alkaline phosphatase, tissue-nonspecific isozyme (Homo sapiens)
Experiment: potency against alkaline phosphatase TNAP – biochemical, luminescent, dose response, SAR follow-up (AID 1056)
Calls of active or inactive are those of the source.
Write down the outcome that applies. Available outcomes: Y = active, N = inactive

Examples with answers:
Smiles entry | Tested system | Classification
Cc1cnn(CC(=O)c2ccc(O)c(O)c2)c1 | Alkaline phosphatase, tissue-nonspecific isozyme (Homo sapiens) | N
COc1ccccc1-c1nnc(SCc2ccc(C(=O)O)cc2)[nH]1 | Alkaline phosphatase, tissue-nonspecific isozyme (Homo sapiens) | Y
Oc1cc(-c2cccc3ccccc23)[nH]n1 | Alkaline phosphatase, tissue-nonspecific isozyme (Homo sapiens) | Y
O/N=C/c1cc(Cl)ccc1OCc1cccc2ccccc12 | Alkaline phosphatase, tissue-nonspecific isozyme (Homo sapiens) | N
CSc1n[nH]c(NC(C)=O)n1 | Alkaline phosphatase, tissue-nonspecific isozyme (Homo sapiens) | N

Dear all, I need the recorded test outcome for O=S(=O)(Nc1ccncn1)c1cc(Cl)ccc1F , thank you. N

----------
Test system: INS1
Experiment: INS-1E survival protection against cytokine death – cell-based, luminescence, retest, dose response (AID 449756);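 further: cell death triggered by IL-1 beta plus TNF-alpha plus IFN-gamma mixture; protective hits raise ATP signal compared with cytokine alone wells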
Type: functional
Conditions: Rattus norvegicus
Active and inactive are the calls of the source.
Reported property: AC50

Below: 4 compounds and their reported AC50.
Compound | AC50
N#CC(C#N)=C(Nc1ccc(F)cc1)SCc1cccc(Br)c1 | 2.92 µM (active)
COc1ccccc1C(CCNCc1ccc(N(C)C)cc1)c1ccc(OC(C)C)cc1 (stereo not given) | 7.11 µM (active)
Cc1cccc2cc(-c3ccccc3)c(-c3ccccc3)c[n+]12 | 4.26 µM (active)
N=c1c2c(-c3ccccc3)c(-c3ccccc3)n(Cc3ccco3)c2ncn1Cc1ccccc1 | 6.08 µM (active)

Proceeding to the next compound to report its AC50.
Supply AC50 measured with INS1 for Oc1[nH]c2ccc(Br)cc2c1N=NC(=S)N1CCOCC1 . 1.6 µM (active)

----------
Biological target: Luciferin 4-monooxygenase (Photinus pyralis, UniProt P08659)
Test: Counter Screen for Luciferase-based Assay Positives. [Related pubchem assays: 620, 618, 411 ]
The source made the active and inactive calls.
Please go through the items and note down their EC50.

Consider the following illustrative entries.
Smiles entry | EC50
Cc1cc(C)c2c(N)c(C(=O)Nc3ncc(C)s3)sc2n1 | < 0.2 µM (active)
N#C/C(=C\c1ccc(N2CCOCC2)o1)c1nc2ccccc2[nH]1 | > 100 µM (not active)
c1ccc(-c2nc(-c3ccccn3)no2)cc1 | 0.35 µM (active)
O=C(O)CCSc1nnc(-c2ccc3c(c2)OCO3)o1 | 27.7 µM (active)
CCOc1ccc(-c2cc(CCCC(=O)NCCCOC)no2)cc1 | > 100 µM (not active)

Now, please, on to the next compound.
Dear colleague, please send me the reported EC50 for CCOc1ccc(-c2nnc(-c3ccco3)o2)cc1 when you can. < 0.2 µM (active)
